// endpoint pIC50 / system enzyme FAAH (Fatty Acid Amido Hydrolase) (Mus musculus, UniProt O08914)
Numbers only, as −log10 of the molar value.

CCOc1ccc(-c2ccc(C3(O)CCN(C(=O)OCC(=O)NC)CC3)cc2)cc1 [compound 39]; 7.02

Moving on to another molecule below.
Which pIC50 value belongs to CNC(=O)COC(=O)N1CCC(O)(c2ccc(-c3ccc(Cl)c(Cl)c3)cc2)CC1 [Compound No. 40] ?
7.01

###

MEASURED ENDPOINT: melting point

Worked examples follow.
CNC(=O)COC(=O)N1CCC(CCc2nccc3ccccc23)CC1; 126 to 128 °C
CNC(=O)COC(=O)N1CCC(O)(c2ccc(-c3ccc(Cl)c(Cl)c3)cc2)CC1; 156 to 158 °C
CNC(=O)COC(=O)N1CCC(CC#Cc2ccc(Cl)cc2)CC1; 101 to 103 °C
NC(=O)COC(=O)N1CCC(Cn2ccc3ccccc32)CC1; 158 to 159 °C
CNC(=O)COC(=O)N1CCC(Cc2ccc3ccccc3c2)CC1; 150 to 152 °C
CNC(=O)COC(=O)N1CCC(CCCc2ccc(Cl)cc2)CC1; 118 to 120 °C
CNC(=O)COC(=O)N1CCC(n2cnc(-c3ccccc3)c2)CC1; 192 to 194 °C

Now, please, on to the next compound.
// lookup melting point for "CNC(=O)COC(=O)N1CCC(O)(c2ccc(Br)cc2)CC1"
57 to 60 °C
